# key: entry, value: rescue above control
test: rescue of polyQ-huntingtin neuronal dysfunction in worms, whole organism, C. elegans mechanosensory neurons, N-terminal huntingtin (AID 1599); conditions: touch response, stronger effect = higher value
Entries with a potency or affinity are not part of this list.
API doc: respond with a numeric literal and nothing else, no unit.

Per the records, this compound ( CC(=O)OC1CN2CCC1CC2 (stereo not drawn) ) has rescue above control equal to -10.7

Per the records, this compound ( `C[C@@H]1C[C@@H]([C@H](O)CC2CC(=O)NC(=O)C2)C(=O)[C@@H](C)C1` ) has rescue above control equal to -0.63

Per the records, this compound ( `O=C(CCCN1CCC2(CC1)C(=O)NCN2c1ccccc1)c1ccc(F)cc1` ) has rescue above control equal to 4.9

Per the records, this compound ( O=C1Nc2ccc(Cl)cc2C(c2ccccc2)=NC1O (stereo not drawn) ) has rescue above control equal to -7.17

Per the records, this compound ( `CC(=O)Nc1cc([As](=O)(O)O)ccc1O` ) has rescue above control equal to -5.17

Moving on to another compound below.
Per the records, this compound ( `NC(=O)c1cc([N+](=O)[O-])cc([N+](=O)[O-])c1` ) has rescue above control equal to -6.77
